# System: T1R1/T1R3 receptor (Felis catus)
# Assay Info: Activation of T1R1/T1R3 receptor by transmembrane compounds and nucleotide derivatives, conducted as in Examples 1, 2 and 5 (Example 7)
# Type: cell-based, cat
# Settings: hek293 cells
Assay Readout: Max resp % of IMP +Alanine (20 mM)

# example entries with known answers
Lookup: Max resp % of IMP +Alanine (20 mM) / T1R1/T1R3 receptor (Felis catus) / O=C(O)C1CCCCC1C(=O)Nc1cc(Cl)cc(Cl)c1 (stereo not shown)
163.5 % of IMP

Reported Max resp % of IMP +Alanine (20 mM) for T1R1/T1R3 receptor (Felis catus), given Nc1nc2c(ncn2[C@@H]2O[C@H](COP(=O)(O)OP(=O)(O)O)[C@@H](O)[C@H]2O)c(=S)[nH]1 [6-Thioguanosine-5′-O-diphosphate] ?
152.8 % of IMP

Observed Max resp % of IMP +Alanine (20 mM) on T1R1/T1R3 receptor (Felis catus) for O=C(NCCc1ccccc1)c1ccccc1 [N-phenethylbenzamide] , please.
20.4 % of IMP

More entries:
Recorded Max resp % of IMP +Alanine (20 mM) for Nc1ccccc1C(=O)NCCc1ccccc1 [2-amino-N-phenethylbenzamide] with T1R1/T1R3 receptor (Felis catus), please?
93.4 % of IMP

----------
# System: T1R1/T1R3 receptor (Felis catus)
# Assay Info: PAM screening of transmembrane compounds with GMP and Ala on T1R1/T1R3 in HEK293 cells (Example 8)
# Assay type: cell-based, cat
# Settings: transmembrane compound at 0.01, 0.1 and 1 mM with GMP + Ala mixtures (T1-T4); PAM if response greater than sum of compound alone and GMP+Ala alone
Assay Readout: T1R1/T1R3 PAM

Look at this compound and give its reported T1R1/T1R3 PAM. `COC(=O)[C@@H](Cc1ccccc1)NCc1ccccc1.Cl`
Yes

Look up T1R1/T1R3 PAM: `N[C@@H](Cc1ccc(O)cc1)C(=O)OCc1ccccc1`
No

Data request, read-out T1R1/T1R3 PAM, for `N#Cc1cccc(NC(=O)CN2C(=O)C(=O)N(Cc3ccccc3)C2=O)c1`
No

Recorded T1R1/T1R3 PAM of `O=C(CN1C(=O)C(=O)N(Cc2ccccc2)C1=O)c1ccc2c(c1)CCC2` , please.
No

Entry under review: `CCCC(CCC)NC(=O)c1ccc2c(c1)OCO2` . Reported T1R1/T1R3 PAM?
Yes

---
Item under review: `O=C(CN1C(=O)C(=O)N(Cc2ccccc2)C1=O)c1ccc2c(c1)OCCCO2` . Reported T1R1/T1R3 PAM?
Weak PAM

State the recorded T1R1/T1R3 PAM for this entry: `O=C(CN1C(=O)C(=O)N(Cc2ccccc2)C1=O)c1ccc(Cl)s1`
Weak PAM

Value lookup for T1R1/T1R3 PAM; key = `O=C(CN1C(=O)C(=O)N(Cc2ccccc2)C1=O)c1ccc2c(c1)OCCO2`
No

Data request, read-out T1R1/T1R3 PAM, for `COc1ccc(C(=O)CN2C(=O)C(=O)N(Cc3ccccc3)C2=O)c(OC)c1`
No

----------
# System: T1R1/T1R3 receptor (Felis catus)
# Assay Info: Activation of T1R1/T1R3 receptor by transmembrane compounds alone or with alanine, IMP, GMP, phenylalanine; HEK293 cells, calcium fluorescence (Example 5)
# Format: cell-based, cat
# Settings: +Alanine (20 mM); relative to IMP
Assign a class from recorded Max resp % of IMP +Alanine (20 mM); defined classes: lo: < 30%; med: ≥ 30% and < 60%; hi: ≥ 60%

Field: example entries. Status: answers known.
Category of CCCC(C)NC(=O)c1ccc(OC)c(C)c1 (centres unmarked) , please.
hi

Hey, which category is O=C(Nc1ccccc1Br)N[C@@H]1c2ccccc2C[C@@H]1O (stereo in doubt) in, do you know?
med

Could you tell me which band CCCC(C)NC(=O)/C=C/c1ccc(OC)c(OC)c1 (centres unmarked) belongs to?
med

Continuing:
Form field 'band' for CCOC(=O)C(NC(=O)c1ccc2c(c1)OCO2)C(C)C (centres unmarked)
lo

Consider CCC(CC)NC(=O)c1ccc(OC)c(OC)c1 [3,4-dimethoxy-N-(pentan-3-yl)benzamide] . To which Max resp % of IMP +Alanine (20 mM) class does it belong?
med

Where would `O=C(CN1C(=O)C(=O)N(Cc2ccccc2)C1=O)c1ccccc1` land among the classes by reported Max resp % of IMP +Alanine (20 mM)?
hi

Just checking, what class would you give COC(=O)C(NC(=O)/C=C/c1cccs1)C(C)C (centres unmarked) here?
lo

Any idea which band CCC(CC)NC(=O)c1ccc(C)c(C)c1 [3,4-dimethyl-N-(pentan-3-yl)benzamide] is in?
hi

# bin label for `CCC(CC)NC(=O)/C=C/c1ccc(OC)cc1`
hi

Kindly state the category for this compound: COc1ccc(C(=O)NC(C)c2ccccc2)cc1C (centres unmarked)
med

For the record `CCC(CC)NC(=O)c1ccc2c(c1)OCCO2` , report the class its Max resp % of IMP +Alanine (20 mM) corresponds to.
lo
